target.system: human Peroxisome Proliferator-activated Receptor alpha (PPARa), PPARA (gene 5465) (UniProt Q07869)
Sequence (Q07869 whole entry, looked up): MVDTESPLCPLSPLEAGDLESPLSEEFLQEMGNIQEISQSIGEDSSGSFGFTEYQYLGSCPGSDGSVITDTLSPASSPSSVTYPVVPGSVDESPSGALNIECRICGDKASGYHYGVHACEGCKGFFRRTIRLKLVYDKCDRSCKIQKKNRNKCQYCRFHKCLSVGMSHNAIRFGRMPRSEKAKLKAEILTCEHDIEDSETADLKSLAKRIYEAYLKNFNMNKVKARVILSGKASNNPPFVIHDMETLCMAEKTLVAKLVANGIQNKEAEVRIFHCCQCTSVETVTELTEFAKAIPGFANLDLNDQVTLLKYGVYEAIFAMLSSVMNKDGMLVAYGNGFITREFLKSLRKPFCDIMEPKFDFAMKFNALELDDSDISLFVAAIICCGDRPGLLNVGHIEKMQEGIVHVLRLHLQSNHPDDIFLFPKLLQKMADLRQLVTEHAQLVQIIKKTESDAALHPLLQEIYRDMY
protocol: NVS_NR_hPPARa: NovaScreen (NVS) Nuclear Receptor Binding Assay for human Peroxisome Proliferator-activated Receptor alpha (PPARa) (AID 2283359);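 note: activity means loss of TR-FRET signal versus DMSO baseline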
Results filed as inconclusive are left out. Active and inactive are the calls of the source. Rule for the calls: active = hit-call score of the fitted dose curve at least 0.9, where 1 is the maximum; inconclusive = response in the unintended direction; inactive = score below 0.9.
Labels: active, inactive

{"columns": ["compound", "category"],
 "data": [
  ["CC(=O)O[C@]1(C(C)=O)CC[C@H]2[C@@H]3C=C(Cl)C4=CC(=O)[C@@H]5C[C@@H]5[C@]4(C)[C@H]3CC[C@@]21C", "inactive"],
  ["CCCCOC(=O)CCCCC(=O)OCCCC", "inactive"],
  ["NC(=Nc1ccccc1)Nc1ccccc1", "inactive"],
  ["CCCCCCCCCCCCCCOS(=O)(=O)O", "active"],
  ["Oc1ccccc1O", "inactive"],
  ["CSc1ccc(Oc2ccc(S(N)(=O)=O)cc2CN(C)C)cc1C", "inactive"]
]}

----------
protocol: BSK_3C_Proliferation: Cell Proliferation Assessment in the BioMAP Diversity Plus: 3C Assay (AID 2283006)
experimental.parameters: primary human endothelial cells (HUVEC)
Active and inactive are the calls of the source. Rule for the calls: active = hit-call score of the fitted dose curve at least 0.9, where 1 is the maximum; inactive = score below 0.9.
Labels: active, inactive

{"columns": ["compound", "category"],
 "data": [
  ["CC1=C(C)S(=O)(=O)CCS1(=O)=O", "inactive"],
  ["CCN(CC)CCOc1ccc(C(=C(Cl)c2ccccc2)c2ccccc2)cc1", "active"],
  ["CN(C)C(=O)NC1(c2ccccc2)CCN(CCC[C@]2(c3ccc(Cl)c(Cl)c3)CCCN(C(=O)c3ccccc3)C2)CC1", "active"],
  ["COC(=O)[C@H]1[C@H]2C[C@@H]3c4[nH]c5cc(OC)ccc5c4CCN3C[C@H]2C[C@@H](OC(=O)c2cc(OC)c(OC)c(OC)c2)[C@@H]1OC", "active"]
]}

----------
protocol: Tanguay_ZF_120hpf_PFIN_legacy: (Legacy) Oregon State University Tanguay Lab 120 Hour Post-fertilization zebrafish Assay for Pectoral Fin Malformation (AID 2283648);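 note: each larva judged yes or no for fin defect by brightfield with dead larvae skipped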
Records with an inconclusive call do not appear. Active and inactive are the calls of the source. How the source made its calls: active means hit-call score of the fitted dose curve at least 0.9, where 1 is the maximum; inconclusive means response in the unintended direction; inactive means score below 0.9.

{"columns": ["compound", "outcome"],
 "data": [
  ["C/C=C/c1ccc(OC)cc1", "inactive"],
  ["Cn1cnc2c1c(=O)[nH]c(=O)n2C", "inactive"],
  ["Oc1ccc(O)cc1", "inactive"],
  ["O=C(NS(=O)(=O)/C=C/c1cccs1)c1ccc(F)cc1Br", "inactive"],
  ["O=C1OC(c2ccc(O)cc2)(c2ccc(O)cc2)c2ccccc21", "inactive"]
]}

----------
Read-out: Interleukin-8 (IL8), CXCL8 (gene 3576)
protocol: BSK_hDFCGF_IL8: BioMAP Diversity Plus: hDFCGF Assay for Interleukin-8 (IL8) Biomarker Activity (AID 2283058)
experimental.parameters: primary human foreskin fibroblasts; actives raise or lower the signal
Active and inactive are the calls of the source. Rule for the calls: active = hit-call score of the fitted dose curve at least 0.9, where 1 is the maximum; inactive = score below 0.9.
Labels: y (active), n (inactive)

{"columns": ["compound", "category"],
 "data": [
  ["Oc1ccc(O)cc1", "y"],
  ["CCCCCCC(C=O)=Cc1ccccc1", "n"],
  ["COc1ccc(C(=O)Nc2nc3ccccc3c(NCc3ccccc3)c2C#N)cc1", "n"],
  ["O=NO", "n"],
  ["C#CC(O)C(CC)CCCC (stereo not drawn)", "n"],
  ["CC(N)=O", "n"],
  ["O=C(O)CC(O)(CC(=O)O)C(=O)O", "n"],
  ["COC(=O)[C@H]1[C@H]2C[C@@H]3c4[nH]c5cc(OC)ccc5c4CCN3C[C@H]2C[C@@H](OC(=O)c2cc(OC)c(OC)c(OC)c2)[C@@H]1OC", "n"],
  ["C=CCCCCCCCCCCCC", "n"],
  ["Cc1cc(SC2=C(O)C[C@@](CCc3ccc(N)cc3)(C(C)C)OC2=O)c(C(C)(C)C)cc1CO", "n"],
  ["CCCCCCCCCCCCCCCCO", "n"],
  ["O=C(Oc1ccccc1)c1cccc(C(=O)Oc2ccccc2)c1", "n"],
  ["NC(=Nc1ccccc1)Nc1ccccc1", "n"]
]}

----------
protocol: BSK_SAg_Proliferation: Cell Proliferation Assessment in the BioMAP Diversity Plus: SAg Assay (AID 2283095);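 note: relative cell number as total protein by SRB absorbance in sub-confluent culture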
experimental.parameters: primary human HUVEC with PBMC
The source made the active and inactive calls. How the source made its calls: active means hit-call score of the fitted dose curve at least 0.9, where 1 is the maximum; inactive means score below 0.9.
Labels: class 1 (active), class 0 (inactive)

{"columns": ["compound", "category"],
 "data": [
  ["O=Cc1ccccc1C=O", "class 0"],
  ["CC(=O)O", "class 0"],
  ["CCCCOC(=O)CCCCC(=O)OCCCC", "class 0"],
  ["CCCCCCC(C=O)=Cc1ccccc1", "class 1"],
  ["C/C=C/C=C/C(=O)O", "class 0"],
  ["CC1(C)C(=O)NC(=O)N1CO", "class 0"],
  ["CC(C)(C)c1ccccc1", "class 0"],
  ["CC(C)NCC(O)c1ccc(O)c(O)c1 (centres undefined)", "class 1"],
  ["O=C(NS(=O)(=O)/C=C/c1cccs1)c1ccc(F)cc1Br", "class 1"],
  ["CCc1cc(C2=C(C(=O)O)N(c3ccccc3C(F)(F)F)S(=O)(=O)c3ccccc32)cc2c1OCO2", "class 1"],
  ["CCCCCCCCCCCCCCCCO", "class 0"],
  ["O=C1OC(c2ccc(O)cc2)(c2ccc(O)cc2)c2ccccc21", "class 1"],
  ["C=CCCCCCCCCCCCC", "class 0"],
  ["CC(=O)OCC(COC(C)=O)OC(C)=O", "class 0"],
  ["CC(C)COC(=O)CCCCC(=O)OCC(C)C", "class 0"],
  ["O=C1c2c(O)cccc2Cc2cccc(O)c21", "class 0"],
  ["Oc1ccc(O)cc1", "class 1"],
  ["O=C1O[C@H]([C@H](O)CO)C(O)=C1O", "class 1"],
  ["O=C1CCCCC1", "class 0"],
  ["CN(C)C(=O)NC1(c2ccccc2)CCN(CCC[C@]2(c3ccc(Cl)c(Cl)c3)CCCN(C(=O)c3ccccc3)C2)CC1", "class 1"],
  ["O=C(O)c1cccnc1", "class 0"],
  ["O=C(Oc1ccccc1)c1cccc(C(=O)Oc2ccccc2)c1", "class 1"],
  ["CC(=O)O[C@]1(C(C)=O)CC[C@H]2[C@@H]3C=C(Cl)C4=CC(=O)[C@@H]5C[C@@H]5[C@]4(C)[C@H]3CC[C@@]21C", "class 0"],
  ["CC(N)=O", "class 0"],
  ["c1ccc2occc2c1", "class 0"],
  ["CC(C)c1cccc(C(C)C)c1", "class 0"],
  ["COC(=O)CCC(=O)OC", "class 0"],
  ["N[C@@H](Cc1c[nH]c2ccccc12)C(=O)O", "class 0"],
  ["Cc1cn([C@H]2C=C[C@@H](CO)O2)c(=O)[nH]c1=O", "class 0"]
]}

----------
protocol: ATG_TCF_b_cat_CIS: Attagene CIS-FACTORIAL HepG2 Assay for human T-Cell-Factor with beta-catenin (TCF/b-cat) (AID 2282965)
experimental.parameters: HepG2 TCF/beta-catenin cis-reporter transcription, actives raise or lower the signal
Activity calls are given as the source filed them. Rule for the calls: active = hit-call score of the fitted dose curve at least 0.9, where 1 is the maximum; inactive = score below 0.9.

{"columns": ["compound", "AC50"],
 "data": [
  ["O=C(Oc1ccccc1)c1cccc(C(=O)Oc2ccccc2)c1", "inactive"],
  ["Cc1ccc(-c2cc(C(F)(F)F)nn2-c2ccc(S(N)(=O)=O)cc2)cc1", "inactive"],
  ["NC1CCCCC1", "inactive"],
  ["C=CCCCCCCCCCCCC", "inactive"],
  ["CS(=O)(=O)c1ccc([C@@H](C[C@H]2CCC(=O)C2)C(=O)Nc2cnccn2)cc1Cl", "inactive"],
  ["Cc1cn([C@H]2C=C[C@@H](CO)O2)c(=O)[nH]c1=O", "inactive"],
  ["O=C(N[C@@H](c1ccccc1)[C@@H]1CCCCN1)c1cccc(C(F)(F)F)c1Cl", "16.6 µM (active)"],
  ["CC(=O)O", "inactive"],
  ["OCC(CO)n1cnc(-c2ccc(F)cc2)c1-c1ccnc(Oc2ccccc2)n1", "inactive"],
  ["COC(=O)CCCC(=O)OC", "inactive"],
  ["CCCC(=O)O", "inactive"],
  ["CCN(CC)CCOc1ccc(C(=C(Cl)c2ccccc2)c2ccccc2)cc1", "inactive"],
  ["Cc1occc(=O)c1O", "inactive"],
  ["CC(=O)OC1CC(C)OC(C)O1 (stereo unspecified)", "inactive"],
  ["Nc1nc(Cl)nc2c1ncn2[C@H]1C[C@H](O)[C@@H](CO)O1", "inactive"],
  ["O=C1OC(c2ccc(O)cc2)(c2ccc(O)cc2)c2ccccc21", "27.5 µM (active)"],
  ["CCc1nc(N)nc(N)c1-c1ccc(Cl)cc1", "60.1 µM (active)"],
  ["CN(C)C(=O)NC1(c2ccccc2)CCN(CC[C@@]2(c3ccc(F)c(F)c3)CN(C(=O)c3ccccc3)CCO2)CC1", "100 µM (active)"],
  ["CCCCCCC(CCCCCCCCCCC(=O)OCC(COC(C)=O)OC(C)=O)OC(C)=O (stereo unspecified)", "50 µM (active)"],
  ["Cc1ccc(C(C)(C)C)c(O)c1", "161 µM (active)"],
  ["CCC(C)N(C)C(=O)c1cc2ccccc2c(-c2ccccc2Cl)n1 (stereo unspecified)", "41.7 µM (active)"],
  ["CC(=O)OCC(COC(C)=O)OC(C)=O", "inactive"],
  ["CCCCCCCCCCCCCCCCO", "159 µM (active)"],
  ["Cn1cnc2c1c(=O)[nH]c(=O)n2C", "inactive"],
  ["NCCOCCOCCN", "inactive"],
  ["CSc1ccc(Oc2ccc(S(N)(=O)=O)cc2CN(C)C)cc1C", "55 µM (active)"]
]}
